Tgt: hCA XII (Homo sapiens)
Sequence (O43570 25-354): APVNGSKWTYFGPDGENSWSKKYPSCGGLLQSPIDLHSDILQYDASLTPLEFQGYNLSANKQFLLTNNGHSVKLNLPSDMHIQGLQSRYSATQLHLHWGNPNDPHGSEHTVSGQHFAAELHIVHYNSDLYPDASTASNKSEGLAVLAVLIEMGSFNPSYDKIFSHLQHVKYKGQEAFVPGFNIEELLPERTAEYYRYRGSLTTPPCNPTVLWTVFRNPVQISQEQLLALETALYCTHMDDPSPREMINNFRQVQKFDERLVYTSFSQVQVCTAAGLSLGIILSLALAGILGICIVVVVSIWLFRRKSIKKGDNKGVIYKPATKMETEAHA
Assay info: hCA XII inhibition, stopped-flow assay
Assay type: biochemical
Study conditions: stopped-flow technique; mean from three different assays, errors ±5–10%
Measured quantity: Ki (nM)

Test smiles: CC(=NNC(=O)CSc1nc2ccccc2c(=O)n1CCc1ccc(S(N)(=O)=O)cc1)c1ccccc1
Units text: nM
Reported: 12.7
//
Test smiles: NS(=O)(=O)c1ccc(CCn2c(SCC(=O)NN=Cc3ccccc3Cl)nc3ccccc3c2=O)cc1
Units text: nM
Reported: 46.1
//
Test smiles: CC(=NNC(=O)CSc1nc2ccccc2c(=O)n1CCc1ccc(S(N)(=O)=O)cc1)c1ccccc1N
Units text: nM
Reported: 18.3
//
Test smiles: NS(=O)(=O)c1ccc(CCn2c(SCC(=O)N/N=C/c3ccccc3)nc3ccccc3c2=O)cc1
Units text: nM
Reported: 38.4
//
Test smiles: NS(=O)(=O)c1ccc(CCn2c(SCC(=O)NN=Cc3c(Cl)cccc3Cl)nc3ccccc3c2=O)cc1
Units text: nM
Reported: 55.9
//
Test smiles: NS(=O)(=O)c1ccc(CCn2c(SCC(=O)NN=Cc3ccc(Cl)cc3Cl)nc3ccccc3c2=O)cc1
Units text: nM
Reported: 89.4
//
Test smiles: NNC(=O)CSc1nc2ccccc2c(=O)n1CCc1ccc(S(N)(=O)=O)cc1
Units text: nM
Reported: 5.4

---

Compound: CCOC(=O)CSc1nc2ccccc2c(=O)n1CCc1ccc(S(N)(=O)=O)cc1 [Compound 2]
melting point: 210 to 211 °C
--
Compound: CC(=NNC(=O)CSc1nc2ccccc2c(=O)n1CCc1ccc(S(N)(=O)=O)cc1)c1ccc(F)cc1 [Compound 24]
melting point: 299 to 300 °C
--
Compound: NS(=O)(=O)c1ccc(CCn2c(SCC(=O)NN=Cc3ccccc3[N+](=O)[O-])nc3ccccc3c2=O)cc1 [Compound 13]
melting point: 288 to 289 °C
--
Compound: NS(=O)(=O)c1ccc(CCn2c(SCC(=O)NN=Cc3ccc(Cl)c(Cl)c3)nc3ccccc3c2=O)cc1 [Compound 8]
melting point: 271 to 272 °C

---

Parameter Selectivity Analysis hCA I/IX: see the listing below.
Tgt: hCA IX (Homo sapiens)
Assay info: hCA IX inhibition, stopped-flow assay
Format: biochemical
Study conditions: selectivity index (SI), ratio of Ki hCA I to Ki hCA IX

Compound: CC(=NNC(=O)CSc1nc2ccccc2c(=O)n1CCc1ccc(S(N)(=O)=O)cc1)c1ccc(N)cc1 [Compound 19]
Tgt: hCA IX (Homo sapiens)
Selectivity Analysis hCA I/IX: 75.77
//
Compound: CC(=NNC(=O)CSc1nc2ccccc2c(=O)n1CCc1ccc(S(N)(=O)=O)cc1)c1ccc(C)cc1 [Compound 25]
Tgt: hCA IX (Homo sapiens)
Selectivity Analysis hCA I/IX: 14.28
//
Compound: NS(=O)(=O)c1ccc(CCn2c(SCC(=O)NN=Cc3ccc(F)cc3)nc3ccccc3c2=O)cc1 [Compound 11]
Tgt: hCA IX (Homo sapiens)
Selectivity Analysis hCA I/IX: 8.57
//
Compound: NS(=O)(=O)c1ccc(CCn2c(SCC(=O)NN=Cc3ccc(Cl)cc3Cl)nc3ccccc3c2=O)cc1 [Compound 7]
Tgt: hCA IX (Homo sapiens)
Selectivity Analysis hCA I/IX: 107
//
Compound: CC(=NNC(=O)CSc1nc2ccccc2c(=O)n1CCc1ccc(S(N)(=O)=O)cc1)c1ccccc1Cl [Compound 21]
Tgt: hCA IX (Homo sapiens)
Selectivity Analysis hCA I/IX: 25.27
//
Compound: NNC(=O)CSc1nc2ccccc2c(=O)n1CCc1ccc(S(N)(=O)=O)cc1 [Compound 3]
Tgt: hCA IX (Homo sapiens)
Selectivity Analysis hCA I/IX: 1.68
//
Compound: CC(=NNC(=O)CSc1nc2ccccc2c(=O)n1CCc1ccc(S(N)(=O)=O)cc1)c1ccc(F)cc1 [Compound 24]
Tgt: hCA IX (Homo sapiens)
Selectivity Analysis hCA I/IX: 6.55

Hello, the source for this data is paper PMC9697198, in case you need it.
